# Tested on: AR 1.0 cells
# PROTOCOL_NOTES: Potentiation of doxorubicin toxicity: proliferation assay (sulphorhodamine B)
# Type: cell-based, mouse
# EXPERIMENTAL_SETUP: with fixed doxorubicin 0.34 μm; four days; 5760 min; read-out: Toxicity with Cytotoxic Agent (IC50)
pIC50: −log10 of the molar value.

COMPOUND | pIC50
COc1cc2c(cc1OC)CN(CCc1ccc(NC(=O)c3ccccc3NC(=O)c3cc4ccccc4o3)cc1)CC2 [compound 9539] | 7.96
COc1cc2c(cc1OC)CN(CCCc1ccc(NC(=O)c3ccccc3NC(=O)c3cnc4ccccc4n3)cc1)CC2 [compound 9567] | 7.55
COc1cc2c(cc1OC)CN(CCc1ccc(NC(=O)c3ccccc3NC(=O)c3ccc(F)cc3)cc1)CC2 [compound 9501] | 7.40
COc1cc2c(cc1OC)CN(CCNC(=O)c1c(Cl)cccc1NC(=O)c1ccc(C(C)C)cc1)CC2 [compound 9405] | 7.05
COc1cc2c(cc1OC)CN(CCc1ccc(NC(=O)c3ccccc3NC(=O)c3ccc(C)c(C)c3)cc1)CC2 [compound 9538] | 7.85
COc1cc2c(cc1OC)CN(CCNC(=O)c1cccc(O)c1NC(=O)c1ccc(C(C)C)cc1)CC2 [compound 9424] | 5.59
COc1cc2c(cc1OC)CN(CCc1ccc(NC(=O)c3c(F)cccc3NC(=O)c3cnc4ccccc4n3)cc1)CC2 [compound 9564] | 8.10
